- Protocol details: pKa of the lipid by TNS fluorescence
- Assay type: physicochemical
- Cond: pKa
Lab note: compare pKa against 5. Equal or greater, write true (1). Smaller, write false (0).

[
  {
    "Compound": "CCCCC/C=C\\C/C=C\\CCCCCCCCOCC(CN1CCC(CCC)C1)OCCOCCO[C@H]1CC[C@@]2(C)C(=CCC3C2CC[C@@]2(C)C3CC[C@@H]2[C@H](C)CCCC(C)C)C1 (some centres unmarked)",
    "Class label": "true (1)"
  },
  {
    "Compound": "CCCCC/C=C\\C/C=C\\CCCCCCCCOCC(CN1CCOCC1)OCCCOCCCO[C@H]1CC[C@@]2(C)C(=CC[C@H]3[C@@H]4CC[C@H]([C@H](C)CCCC(C)C)[C@@]4(C)CC[C@@H]32)C1 (some centres unmarked)",
    "Class label": "false (0)"
  },
  {
    "Compound": "CCCCCCCC/C=C\\CCCCCCCCOCC(CN1CCOCC1)OCCOCCNC(=O)O[C@H]1CC[C@@]2(C)C(=CC[C@H]3[C@@H]4CC[C@H]([C@H](C)CCCC(C)C)[C@@]4(C)CC[C@@H]32)C1 (some centres unmarked)",
    "Class label": "true (1)"
  },
  {
    "Compound": "CCCCC/C=C\\C/C=C\\CCCCCCCCOCOCC(CN1CCCCC1)OCCOCCO[C@H]1CC[C@@]2(C)C(=CC[C@H]3[C@@H]4CC[C@H]([C@H](C)CCCC(C)C)[C@@]4(C)CC[C@@H]32)C1 (some centres unmarked)",
    "Class label": "true (1)"
  }
]
